Test system: LNCaP cells
Assay: CTG proliferation assay, in-vitro combination screen, LNCaP
Assay type: cell-based
Parameters: key: experimental response-surface area minus reference-model area (Bliss/HSA)
Conditions: second agent in combination with Compound I, 7 days
Description: Three prostate cancer cell lines LNCAP, VCAP, and 22RV1 were used in this screen. […] 20 μL of CTG reagent was added to each well of the 384 well plate, and plates were then incubated for 45 minutes before measuring the […] using PerkinElmer EnVision Plate Reader. Synergy is calculated by Bliss and HSA excess scores. […] A negative HSA excess score indicates antagonism, while a positive HSA excess indicates additivity and synergy is detected when also the Bliss excess score is positive. […]
We begin with a simple list: items and their reported Synergy excess.
Reply: number alone, nothing else.

Use the examples below as a reference point.
# smiles-data, recorded-metric, data-value
records = [
    ("CCN(c1cc(-c2ccc(CN3CCOCC3)cc2)cc(C(=O)NCc2c(C)cc(C)[nH]c2=O)c1C)C1CCOCC1", "Synergy excess", 5.3),
    ("CC(C)NC[C@@H](C(=O)N1CCN(c2ncnc3c2[C@H](C)C[C@H]3O)CC1)c1ccc(Cl)cc1", "Synergy excess", 7.6),
    ("C[C@@H](Nc1cc(F)cc(F)c1)c1cc(C(=O)N(C)C)cc2c(=O)cc(N3CCOCC3)oc12", "Synergy excess", 4.4),
]

Task item: Given `NC1(C(=O)N[C@@H](CCO)c2ccc(Cl)cc2)CCN(c2nc[nH]c3nccc2-3)CC1` , state its recorded Synergy excess.
Reply: 9.4
